Provenance of the data: PubChem BioAssay (NCI)

tested on: SF-539 CNS; experiment: NCI tumour cell line growth inhibition, 48 h
The threshold is inclusive: TGI of exactly 10 µM counts as Condition met; values below receive Condition not met.

COc1ccc(/C=c2\s/c(=C3/SC(=S)N(c4ccccc4)C3=O)n(-c3ccccc3)c2=O)cc1	Condition met
COc1ccc(Cn2cc3c(c2)-c2oncc2CC3)cc1	Condition met
CCCCC1=C(C(=O)N2CCOCC2)C2(OCCO2)C1=O	Condition met
O=[N+]([O-])c1ccc(NC(=S)N=Nc2c(O)[nH]c3ccc([N+](=O)[O-])cc23)cc1	Condition met
COc1cc(C(c2c(O)c3ccccc3oc2=O)c2c(O)c3ccccc3oc2=O)cc(Br)c1O	Condition met
Cc1ccc(-c2cc(-c3ccccc3)c(C#N)c(=O)n2C2OC(CO)C(O)C(O)C2O)cc1 (stereo not drawn)	Condition met
O=C(O)c1cccc2cccc(-c3cccc4cccc(C(=O)O)c34)c12	Condition met
CC(=O)OCC1OC(n2c(-c3ccccc3)c(N=Nc3ccccc3)c(C)c(C#N)c2=S)C(OC(C)=O)C(OC(C)=O)C1OC(C)=O (stereo not drawn)	Condition met
Cc1cc2c(cc1C)N(C(=O)CCl)CCN2C(=O)CCl	Condition not met
O=c1[nH]c2nc3ccccc3nc2[nH]c1=O	Condition met
CCn1c2ccc(C(=O)CCCN3CCCCC3)cc2c2cc(C(=O)CCCN3CCCCC3)ccc21	Condition not met
C/C(CCc1ccccc1)=N\NC(N)=S	Condition met
COc1cc(-c2cn(-c3ccc(Cl)c(Cl)c3)c(=O)n2C(C)=O)cc(OC)c1OC	Condition not met

====

system: OVCAR-5 ovarian; assay: NCI tumour cell line growth inhibition, 48 h
Documented TGI across a set of compounds
ASSAY_READOUT: TGI

NCCCCNc1ccc2c(=O)[nH][nH]c(=O)c2c1	> 100 µM
COc1ccccc1C1Nn2c(nc3ccccc3c2=O)N1c1ccc(C)cc1 (stereo not given)	26.6 µM
Cc1cc2c(cc1Cl)SC1=NN(C)C(N(C)C)N1S2(=O)=O (stereo not given)	> 100 µM
CN1C(=O)N(C)C(O)C(Cl)(Br)C1=O (stereo not given)	> 100 µM
O=C1C=CC=C/C1=C1\N=C(c2ccccc2OCC(=O)c2ccccc2)SS1	> 100 µM
C/C(Cl)=N\OC(=O)Nc1ccc(C)cc1	32.6 µM
NCCCCNCCCNC(=O)c1nc(-c2nc(CCN)sc2Cl)sc1Cl	> 100 µM
O=C(N/N=C(/CCN1CCCC1)CC(c1ccccc1)c1c(O)c2ccccc2oc1=O)c1ccncc1 (stereo not given)	> 100 µM
COc1ccc2cc(-c3c(-c4ccncc4)nc(-c4ccc(S(C)(=O)=O)cc4C)n3C)ccc2c1	> 25 µM
CC1C(NNc2ccccc2)Oc2cc3c(cc2C1c1ccccc1O)OCO3 (stereo not given)	19.1 µM
Nc1ccccc1C#C/C=C\C#Cc1ccccc1	51.6 µM
COc1ccc(/C=c2\s/c(=C3/SC(=S)N(c4ccccc4)C3=O)n(-c3ccccc3)c2=O)cc1	> 100 µM
c1ccc2c(c1)Sc1nccc3ccnc-2c13	> 100 µM
O=[N+]([O-])c1cnn(C2=CNc3ccccc3N=C2)c1	> 100 µM
CNCCn1c(=O)c2cc(OC)c(OC)cc2c2ccc3cc4c(cc3c21)OCO4	2.6 µM

====

tested on: DLD-1 colon; assay: NCI tumour cell line growth inhibition, 48 h
ASSAY_READOUT: TGI

NCCCCNCCCNC(=O)c1nc(-c2nc(CCN)sc2Cl)sc1Cl	> 100 µM
Cc1cc(C)c(C(=O)c2no[n+]([O-])c2C(=O)c2c(C)cc(C)c(Br)c2C)c(C)c1Br	30.7 µM
O=[N+]([O-])c1cnn(C2=CNc3ccccc3N=C2)c1	> 100 µM

====

test system: A549 NSCLC; assay: NCI tumour cell line growth inhibition, 48 h
Documented TGI across a set of compounds
ASSAY_READOUT: TGI

CO[C@H]1SC[C@H](OC(C)=O)[C@H](OC(C)=O)[C@H]1OC(C)=O	> 100 µM
CCCCSc1nsc(N(C(=O)c2ccccc2)C(=O)c2ccccc2)n1	> 100 µM
CCOc1ccc(Nc2nc(N)nc(N)c2N)cc1	> 100 µM
Cc1ccccc1C1=C(C(=O)Nc2ccc(Cl)c(Cl)c2)NC(=S)NC1N (stereo unspecified)	> 100 µM
COC1OC(CO)C(O)C1N (stereo unspecified)	> 100 µM
C[C@]12CCCC(=O)C1(O)C[C@H](C(=O)O)CC2 (stereo partly specified)	> 100 µM
COC(=O)C(=O)C(C(=O)C(=O)Nc1cccc(C(C)=O)c1)c1nc2ccccc2[nH]c1=O (stereo unspecified)	> 100 µM
COc1ccc(-c2c3c(n(C4OC(CO)C(O)C(O)C4O)c(=S)c2C#N)CCC3)cc1 (stereo unspecified)	> 100 µM
COc1cc(/C=C2\C(=O)Nc3ccc(N(C)C)cc32)cc(OC)c1OC	35.9 µM
C/C(Cl)=N\OC(=O)Nc1ccc(C)cc1	35.6 µM
COC(=O)C(CC(=O)Nc1ccc(C)cc1)C(=O)C(=O)Nc1ccccc1C(C)C (stereo unspecified)	> 100 µM
Cc1ccc(-c2csc(NC(=O)CN3CCN(c4cc5c(cc4F)c(=O)c(C(=O)O)cn5C4CC4)CC3)n2)cc1	13.9 µM
O=P(O)(O)c1ccccc1Oc1ccccc1	> 100 µM
CC1CCC2(NC1)OC1CC3C4CC=C5CC(OC6OC(CO)C(OC7OC(C)C(O)C(O)C7O)C(O)C6OC6OC(C)C(O)C(O)C6O)CCC5(C)C4CCC3(C)C1C2C (stereo unspecified)	9.59 µM
CS(=O)(=O)CSCSSCS(C)(=O)=O	> 100 µM
Cc1cc(S(=O)(=O)Nc2n[nH]c(-c3ccccn3)n2)c(S)cc1Cl	41.9 µM
CC[C@H](Nc1nc(C)nc(N)c1C#N)c1nc2cccc(NCc3ccc(C(=O)NO)cc3)c2c(=O)n1-c1ccccc1	4.2 µM
O=S(=O)(O)c1ccc(N=Nc2ccc(N=Nc3ccc(/C=C/c4ccc(N=[N+]([O-])c5ccc(/C=C/c6ccc(N=Nc7ccc(N=Nc8ccc(S(=O)(=O)O)cc8)cc7)cc6S(=O)(=O)O)c(S(=O)(=O)O)c5)cc4S(=O)(=O)O)c(S(=O)(=O)O)c3)cc2)cc1	> 100 µM
CCc1c(CNc2ccc(C(=O)NC(CC(=O)O)C(=O)O)cc2)ccc2nc(N)nc(N)c12 (stereo unspecified)	> 1000 µM
Cc1ccc2c(c1)-c1c(C#N)c(N)nc(-c3ccc(Cl)cc3)c1CCS2(=O)=O	> 100 µM
Cc1ccc(-c2cc(-c3ccccc3)c(C#N)c(=O)n2C2OC(CO)C(O)C(O)C2O)cc1 (stereo unspecified)	> 100 µM

====

system: BT-549 breast; experiment: NCI tumour cell line growth inhibition, 48 h
ASSAY_READOUT: TGI

CCC(CO)Nc1nc(NCc2ccccc2)c2ncn(C(C)C)c2n1 (configuration not stated)	> 55.3 µM
Nc1ccc(C(=O)CC(N)C(=O)O)cc1O (configuration not stated)	> 100 µM
C=C1C(OC2O[C@@H]3O[C@@]4(C)CC[C@H]5[C@H](C)CC[C@@H](C2=C)[C@@]35O4)O[C@@H]2O[C@@]3(C)CC[C@H]4[C@H](C)CC[C@@H]1[C@@]24O3 (some centres not stated)	> 50 µM
COc1ccc2cc(-c3c(-c4ccncc4)nc(-c4ccc(S(C)(=O)=O)cc4C)n3C)ccc2c1	> 25 µM
S=C(N/N=C\C(=N/NC(=S)N1CCCCC1)c1ccccc1)N1CCCCC1	3.57 µM
N#C/C(C(=O)Nc1ccc(Cl)cc1)=C(/N)N1CCCC1	> 100 µM
COc1ccc2[nH]c(O)c(C(=Nc3ccc(N(C)C(=O)CN4CCN(C)CC4)cc3)c3ccccc3)c2c1	3.19 µM

====

Documented TGI across a set of molecules
test system: OVCAR-8 ovarian; test: NCI tumour cell line growth inhibition, 48 h
ASSAY_READOUT: TGI

O=S(=O)(c1cc(Cl)ccc1Cl)n1ccnc1	> 100 µM
COc1cc(S(=O)(=O)Nc2ccc(C(=O)/C=C/c3ccc(O)cc3)cc2)ccc1F	> 100 µM
Nc1ccc(C(=O)CC(N)C(=O)O)cc1O (configuration not stated)	> 100 µM
O=S(=O)(O)c1ccc(N=Nc2ccc(N=Nc3ccc(/C=C/c4ccc(N=[N+]([O-])c5ccc(/C=C/c6ccc(N=Nc7ccc(N=Nc8ccc(S(=O)(=O)O)cc8)cc7)cc6S(=O)(=O)O)c(S(=O)(=O)O)c5)cc4S(=O)(=O)O)c(S(=O)(=O)O)c3)cc2)cc1	> 100 µM
Cc1c(C(=O)NCCN2CCOCC2)cn2ncnc(Oc3ccc(NC(=O)Nc4ccc(Cl)c(C(F)(F)F)c4)cc3)c12	> 100 µM
N#C/C(=C/n1c(=S)[nH]c2ccc([N+](=O)[O-])cc21)C(N)=O	> 100 µM
CN(C)/N=C(/c1nc2ccc(Cl)cc2[nH]c1=O)C(O)c1ccc(C(O)/C(=N\N(C)C)c2nc3ccc(Cl)cc3[nH]c2=O)cc1 (configuration not stated)	> 100 µM
COc1cc2c(=O)n(CCN)c3c4cc5c(cc4ccc3c2cc1OC)OCO5	3.91 µM
COc1ccc(OC2OC(CO)C(OCc3ccccc3)C(OCc3ccccc3)C2OCc2ccccc2)cc1 (configuration not stated)	> 100 µM
COc1ccc(N2C(=O)[C@H]3CC(C)c4c([nH]c5ccccc45)[C@H]3C2=O)cc1 (some centres not stated)	55.9 µM
CCCCOc1ccc(OCCCCCCCCCC[N+](C)(C)C)cc1	22 µM
CCOC(=O)c1s/c(=N\Nc2nc3ccccc3cc2C2OCCO2)n(Cc2ccccc2)c1C	> 100 µM
Cc1nc2sccn2c1-c1csc(Nc2cccc(Cl)c2C)n1	47.1 µM
CO[C@H]1SC[C@H](OC(C)=O)[C@H](OC(C)=O)[C@H]1OC(C)=O	> 100 µM
Nc1nc(Cl)cc(NCC2(O)CC2)n1	> 100 µM
Cc1ccc(-c2cc(-c3ccco3)c(C#N)c(=O)n2C2OC(OC(=O)c3ccccc3)C(OC(=O)c3ccccc3)C2OC(=O)c2ccccc2)cc1 (configuration not stated)	> 100 µM
CC[PH+](CC)CC.O=COC1OC([S-])C(OC=O)C(OC=O)C1OC=O.[Au+] (configuration not stated)	5.55 µM
CCCOc1ccc2nc(NC(=O)OC)[nH]c2c1	> 100 µM
CN(C)CCCNC(=O)c1ccc2c(c1)oc1cc3ccccc3c(=O)n12	24.9 µM
CN1C(=O)N(C)C(O)C(Cl)(Br)C1=O (configuration not stated)	> 100 µM
O=[N+]([O-])c1ccc(NC(=S)N=Nc2c(O)[nH]c3ccc([N+](=O)[O-])cc23)cc1	> 100 µM
Cc1cc2ncn(C3CCCCO3)c2cc1C (configuration not stated)	> 100 µM
